Would you kindly list CC50 for each of these compounds?
Assay: Cytotoxicity in MT4 cells
Assay type: cell-based
Conditions: human, concentration at which 50% of the cells remain viable, read-out: LC50 (the source's name)

Please supply the value of reported CC50 for the item CC(C)c1nc(CN(C)C(=O)N[C@H](C(=O)NN(Cc2ccccc2)C[C@H](O)[C@H](Cc2ccccc2)NC(=O)OCc2ccno2)C(C)C)co1 [Example 13D] 58 µM

Please supply the value of reported CC50 for the item `CC(C)(C)OC(=O)NN(Cc1ccccc1)C[C@H](O)[C@H](Cc1ccccc1)NC(=O)OCc1ccccc1` > 100 µM

Please supply the value of reported CC50 for the item `COc1ccc(CN(C[C@H](O)[C@H](Cc2ccccc2)NC(=O)[C@@H](NC(=O)OCc2ccccn2)C(C)C)NC(=O)OC(C)(C)C)cc1` > 100 µM
